- System: HMPV clinical isolate TN/1501/A1
- assayMethodText: HMPV antiviral assay Method-B (clinical isolate TN/1501/A1 in LLC-MK2 cells, ATP-Lite readout)
- Type: cell-based, Human metapneumovirus (HMPV)
- conditionSummary: human metapneumovirus, LLC-MK2, 144 h, hMPV WT1501 (clinical isolate TN/1501/A1), 6 days
pEC50: −log10 of the molar value.
Known pEC50 of a selection of molecules

Some entries whose results are on file:
molecule	pEC50
COc1cc(C(=O)NC[C@](O)(c2cc3c(c(-c4cc(Cl)c(F)cc4F)n2)OC[C@]3(C)C(N)=O)C2(F)CC2)cc2cc(Cl)c(C)nc12 [Example 760]	> 6.30
COc1cc(C(=O)NC[C@](O)(c2nc(-c3ccc4c(c3)OC(F)(F)O4)c3c(c2F)[C@](C)(C(N)=O)CO3)C2CC2)cc2cn(C3CC3)nc12 [Example 863]	< 6.30
COc1cc(-c2nc([C@@](O)(CNC(=O)c3cc(OC)c4nn(C5CC5)cc4c3)C(F)(F)F)cc3c2OC[C@]3(C)C(N)=O)ccc1Cl [Example 934]	< 6.30

Asked: Field request: pEC50 | item: COc1cc(C(=O)NC[C@](O)(c2cc3c(c(-c4cc(Cl)c(F)c(Cl)c4)n2)OC[C@]3(C)C(N)=O)C(F)(F)F)cc2cc(Cl)c(C)nc12 [Example 674]
Given back: < 6.30

Asked: Could you share which pEC50 value was measured for C[C@]1(C(N)=O)COc2c1cc([C@@](O)(CNC(=O)c1cc3c(cn1)OC(F)(F)O3)C(F)(F)F)nc2-c1ccc(F)cc1 [Example 1067] ?
Given back: < 6.30

Asked: Quick check: pEC50 of Cc1cnc2c(OC(F)(F)F)cc(C(=O)NC[C@](O)(c3cc4c(c(-c5ccc(F)cc5Cl)n3)OC[C@]4(C)C(N)=O)C(F)(F)F)cc2c1 [Example 519] ?
Given back: < 6.30

Asked: I would be grateful if you could share the reported pEC50 for COc1ccc(C(=O)NC[C@](O)(c2cc3c(c(-c4ccc(F)cc4)n2)OC[C@]3(C)C(N)=O)C(F)(F)F)n2ccnc12 [Example 699] .
Given back: < 6.30

Asked: Reported pEC50 for COc1cc(C(=O)NC[C@](O)(c2cc3c(c(-c4cc(Cl)c(F)cc4F)n2)OC[C@]3(C)C(N)=O)C2CC2)cc2cc(Cl)c(C)nc12 [Example 666] : what is it?
Given back: > 6.30

Asked: If you can, please state the reported pEC50 value of Cc1nc2c(Cl)cc(C(=O)NC[C@](O)(c3cc4c(c(-c5ccc(F)c(Cl)c5)n3)OC[C@]4(C)C(N)=O)C3CC3)cc2cc1Cl [Example 500] .
Given back: > 6.30

Asked: # lookup: pEC50 of C[C@]1(C(N)=O)COc2c1cc([C@@](O)(CNC(=O)c1cc(Cl)c3nn(C(F)F)cc3c1)C1CC1)nc2-c1ccc2c(c1)OC(F)(F)O2 [Example 856]
Given back: > 6.30

Asked: Would you mind telling me what pEC50 value was observed for COc1cc(C(=O)NC[C@](O)(c2cc3c(c(-c4ccc(F)c(Cl)c4)n2)OC[C@]3(C(N)=O)C(F)F)C2CC2)cc2cn(C3CC3)nc12 [Example 1024] ?
Given back: < 6.30

Asked: Param item = COc1cc(C(=O)NC[C@](O)(c2cc3c(c(N4CCOCC4)n2)OC[C@]3(C)C(N)=O)C(F)(F)F)cc2cn(C3CC3)nc12 [Example 1269] ; retrieve measured pEC50.
Given back: < 6.30
